# Protocol: M. tuberculosis H37Rv growth inhibitors, H37Rv strain (AID 1626);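 note: bacteria incubated seven days before Alamar blue readout; 0% = bacteria only wells and 100% = bacteria with antibiotic wells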
# Run Parameters: active compounds read high, concentration not given here
The campaign covered roughly 220,000 compounds. About 2,000 (0.91%) were called active. Not shown: some 2% with an inconclusive outcome. These entries were drawn from the full list. Measured potencies and affinities stand elsewhere.
Quick reference for inhibition among some compounds
The reply should contain only the number, in %.

CCOC(=O)Cc1nnc(NC(=O)C(CC)Sc2nc(C)cc(=O)[nH]2)s1 (stereo unspecified) :: -0.83
CCOc1ccc2nc(NC(=O)c3ccoc3C)sc2c1 :: 8.64
CCC(Sc1nc(C)cc(=O)[nH]1)C(=O)Nc1nnc(C)s1 (stereo unspecified) :: -7.53

I would be grateful if you could share the reported inhibition for Cc1cc(C(F)(F)F)nc(SCc2ccc(C(=O)O)o2)n1 .
-10.7

Next compound: CCOc1ccc2nc(NC(=O)c3cccnc3)sc2c1
3.09

Subsequent entry: O=C(CNS(=O)(=O)c1ccccc1)Nc1ccc2c(c1)OCO2
0.17

----------
# Protocol: M. tuberculosis H37Rv growth inhibitors, H37Rv strain (AID 1626);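 note: bacteria incubated seven days before Alamar blue readout; 0% = bacteria only wells and 100% = bacteria with antibiotic wells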
# Run Parameters: active compounds read high, concentration not given here
Among all 220,000 compounds or so, about 2,000 (0.91%) were called active. Roughly 2% stayed inconclusive and do not appear here. Not all results are given here. Measured potencies and affinities stand elsewhere.
Recorded Metric: inhibition (%)
Kindly answer with a numeric value in %, unit omitted.

O=C(Cc1csc(-c2ccccc2)n1)NCc1cccs1 :: 2.64
CCCCn1nc2cc(C(=O)NCc3cc(C(F)(F)F)cc(C(F)(F)F)c3)ccc2c1OC :: -4.51
CCOC(=O)c1ccc(-c2ccc(/C=N/NC(=O)CN(c3ccccc3Cl)S(C)(=O)=O)o2)cc1 :: 6.39
Cc1cc(C)nc(NC(=O)/C=C/c2ccccc2Cl)n1 :: -5.04

Requested read-out: inhibition. Entry: COc1c(O)ccc2cnn(-c3ccccc3C)c(=O)c12
-8.74

Try this compound next: COc1cc(CN2CCCC(C(=O)c3ccc4c5c(cccc35)CC4)C2)cc(OC)c1O (stereo unspecified)
-1.67

// same read-out, input: COc1ccccc1S(=O)(=O)CC(O)COc1ccc(C#N)cc1 (stereo unspecified)
-1.05

Now consider O=C(COC(=O)c1ccc(O)cc1)Nc1cc(C(F)(F)F)ccc1Cl and answer again.
0.39

Repeat with COC(=O)c1sccc1NC(=O)c1sccc1C
0.49

Next compound: Cc1cc(C)nc(NC(=O)/C=C/c2ccccc2Cl)c1
9.12

What do we get for Fc1cccc(NC(=S)NCc2cccnc2)c1 ?
21.1

----------
# Protocol: M. tuberculosis H37Rv growth inhibitors, H37Rv strain (AID 1626);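 note: bacteria incubated seven days before Alamar blue readout; 0% = bacteria only wells and 100% = bacteria with antibiotic wells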
# Run Parameters: active compounds read high, concentration not given here
The campaign covered roughly 220,000 compounds. About 2,000 (0.91%) were called active. Another 2% or so got no clear call; they are omitted. These entries were drawn from the full list. Results with a measured potency or affinity are listed apart.
Below is a list of entries, each paired with its recorded inhibition value.
// return numeric value only (unit: %, not printed)

COc1ccc(-c2nc(-c3ccccc3)nc(N3CCN(C)CC3)c2C#N)cc1 :: 9.82

Which inhibition reading was recorded for the compound CN1CCN(c2nc(-c3ccccc3)nc(-c3ccccc3)c2C#N)CC1 ?
20.2

Now try O=C(CS(=O)(=O)c1cccc(Cl)c1)Nc1ccccc1Cl .
-9.41

Also, COc1ccc(OC)c2c(C)cc(N3CCN(C(=O)c4ccc(F)cc4)CC3)nc12 please.
8.6

Repeat with N#Cc1c(-c2ccccc2)nc(-c2ccccc2)nc1N1CCOCC1
-9.91

What about COc1ccc(C2SC[C@@H](C(=O)O)N2C(C)=O)cc1 (stereo partly specified) ?
-5.12

Also check COc1cccc(-c2nc(N3CCN(C)CC3)c3ccccc3n2)c1O
10.5

Then this compound: COc1ccc(-c2nc(-c3cccc(C)c3)nc(N3CCN(C)CC3)c2C#N)cc1
6.59

CCS(=O)(=O)c1c([N+](=O)[O-])ncn1C , same question.
76.2

Also CC(C)C(=O)Nc1ccc(C(=O)NNC(=O)NC2CCCCC2)cc1 ?
-3.11

Also, O=C(Nc1ccncc1)c1ccc(NS(=O)(=O)c2cccc(F)c2)cc1 please.
7.32
